test: Binding affinity to DNA dodecamer complex (CGCGAATTCGCG)2 (unknown origin) assessed as change in melting temperature by differential scanning calorimetry
metric: ΔTm (°C)
Number in °C, nothing else.

The cases that follow already have their ΔTm on record.
>>> numericresult("CCCCCCOc1cccc(NC(=O)c2ccc(-c3ccc(C(=O)Nc4cccc(C5=NCCN5)c4)cc3)cc2)c1")
0.7
>>> numericresult("c1cc2cc(-c3ccc(-c4cc5ccc(C6=NCCCN6)cc5[nH]4)cc3)[nH]c2cc1C1=NCCCN1")
24
>>> numericresult("C(=C\\c1cc2ccc(C3=NCCN3)cc2[nH]1)/c1cc2ccc(C3=NCCN3)cc2[nH]1")
20
>>> numericresult("NCCc1cc(Br)cc(C#Cc2cccc(C#Cc3cc(Br)cc(CCN)c3)c2)c1")
-0.1
>>> numericresult("O=P(O)(O)C(O)(Cc1cccc(-c2cccc(NS(=O)(=O)c3cccc(S(=O)(=O)Nc4cccc(-c5cccc(CC(O)(P(=O)(O)O)P(=O)(O)O)c5)c4)c3)c2)c1)P(=O)(O)O")
-1
>>> numericresult("O=C(Nc1cccc(C2=NCCN2)c1)c1ccc(-c2ccc(C(=O)Nc3cccc(C4=NCCN4)c3)cc2)cc1")
11

Continue with the molecule presented below.
Q) Quick check: ΔTm of O=C(Nc1cccc(O[C@@H]2O[C@H](CO)[C@@H](O)[C@H](O)[C@H]2O)c1)c1ccc(-c2ccc(C(=O)Nc3cccc(C4=NCCN4)c3)cc2)cc1 ?
A) 5.8

* * *

assay: Inhibition of Staphylococcus aureus UPPS using FPP/IPP as substrate by spectrophotometry
metric: IC50

Take a look at these entries with their results.
>>> result("N=C(N)c1ccc(OCCCCCOc2ccc(C(=N)N)cc2)cc1 [PENTAMIDINE]")
"240 µM"
>>> result("S=C(Nc1cccc(C2=NCCN2)c1)c1ccc(-c2ccc(C(=S)Nc3cccc(C4=NCCN4)c3)cc2)cc1")
"3.5 µM"
>>> result("O=C(Nc1cccc(Oc2ccccc2)c1)c1ccc(-c2ccc(C(=O)Nc3cccc(C4=NCCN4)c3)cc2)cc1")
"5.7 µM"

Consider the additional molecule presented here.
Q) Looking for the measured IC50 of O=C(Nc1cccc(O[C@@H]2O[C@H](CO)[C@@H](O)[C@H](O)[C@H]2O)c1)c1ccc(-c2ccc(C(=O)Nc3cccc(C4=NCCN4)c3)cc2)cc1 , can you help?
A) 530 µM
